biological target: HPK1 (Homo sapiens); construct: A HiBiT tag was introduced by CRISPR on the N terminus of HPK1 in Jurkat cells; host or cells: Jurkat cells (ATCC TIB-152), monoclonal line with CRISPR knock-in of HiBiT at the endogenous HPK1 locus; assay: HPK1 Cellular HiBit Degradation Assay; assay type: cell-based; details: HiBiT HPK1 Jurkat cells, 24 hrs; concentration at which 50% of HPK1 was remaining; read-out: DC50 Category
Sequence (Q92918 whole entry): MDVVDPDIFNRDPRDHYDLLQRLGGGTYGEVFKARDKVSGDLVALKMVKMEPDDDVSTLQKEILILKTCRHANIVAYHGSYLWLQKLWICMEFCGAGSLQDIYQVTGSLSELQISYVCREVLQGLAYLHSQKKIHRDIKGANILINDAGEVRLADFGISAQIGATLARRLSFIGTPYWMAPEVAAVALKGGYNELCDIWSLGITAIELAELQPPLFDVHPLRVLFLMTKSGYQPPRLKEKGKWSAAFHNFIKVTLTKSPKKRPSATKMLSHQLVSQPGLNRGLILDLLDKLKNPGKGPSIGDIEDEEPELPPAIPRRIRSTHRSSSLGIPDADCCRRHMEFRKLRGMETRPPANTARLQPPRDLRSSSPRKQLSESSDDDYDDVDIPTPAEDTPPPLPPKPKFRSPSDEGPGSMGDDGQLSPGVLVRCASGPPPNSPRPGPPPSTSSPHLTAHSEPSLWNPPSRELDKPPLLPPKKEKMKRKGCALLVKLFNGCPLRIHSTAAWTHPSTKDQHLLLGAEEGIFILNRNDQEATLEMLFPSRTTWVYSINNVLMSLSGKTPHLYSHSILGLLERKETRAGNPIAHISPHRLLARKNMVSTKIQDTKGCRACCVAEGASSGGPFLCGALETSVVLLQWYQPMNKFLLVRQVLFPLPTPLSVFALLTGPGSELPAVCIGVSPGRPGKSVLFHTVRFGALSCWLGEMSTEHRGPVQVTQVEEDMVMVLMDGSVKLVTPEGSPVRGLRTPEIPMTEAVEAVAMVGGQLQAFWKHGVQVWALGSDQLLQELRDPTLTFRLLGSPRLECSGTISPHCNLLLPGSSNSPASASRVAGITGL
DC50 values by entry

Summary for this compound, CC(C)n1cnc2cc(-c3ccc4c(c3)N([C@H]3C[C@@H](N5CCCCC5)C3)C(=O)C43CCN(C(=O)[C@H]4CC[C@H](CNC(=O)C5CCN(c6ccc(C7CCC(=O)NC7=O)cn6)CC5)CC4)CC3)nc(NC3CC3)c21 (mixture of isomers) : DC50 is 100 to 500 nM

Summary for this compound, CC(C)n1cnc2cc(-c3ccc4c(c3)N([C@H]3C[C@@H](N5CCCCC5)C3)C(=O)C43CCN(C(=O)C4(C)CCN(C(=O)C5C6CCC5CN(c5ccc(N7CCC(=O)NC7=O)cn5)C6)CC4)CC3)nc(NC3CC3)c21 (some centres unmarked) : DC50 is < 100 nM

Summary for this compound, CC(C)n1cnc2cc(-c3ccc4c(c3)N([C@H]3C[C@@H](N5CCCCC5)C3)C(=O)C43CCN(C(=O)[C@@H]4CCN(C(=O)[C@H]5CC[C@H](Nc6ccc(C7CCC(=O)NC7=O)cn6)CC5)C4)CC3)nc(NC3CC3)c21 (mixture of isomers) : DC50 is 100 to 500 nM

Summary for this compound, CC(C)n1cnc2cc(-c3ccc4c(c3)N([C@H]3C[C@@H](N5CCCCC5)C3)C(=O)C43CCN(C(=O)C4[C@@H]5C[C@H]4CN(C(=O)CC4CCN(c6ccc(C7CCC(=O)NC7=O)cn6)CC4)C5)CC3)nc(NC3CC3)c21 (some centres unmarked) : DC50 is < 100 nM

Summary for this compound, CC(C)n1cnc2cc(-c3ccc4c(c3)N([C@H]3C[C@@H](N5CCCCC5)C3)C(=O)C43CCN(C(=O)[C@@H]4CCCN(C(=O)C5CCN(c6ccc(C7CCC(=O)NC7=O)cn6)CC5)C4)CC3)nc(NC3CC3)c21 (mixture of isomers) : DC50 is < 100 nM

Summary for this compound, CC(C)n1cnc2cc(-c3ccc4c(c3)N([C@H]3C[C@@H](N5CCCCC5)C3)C(=O)C43CCN(C(=O)C4(C)CCN(C(=O)C5CCN(c6ncc(C7CCC(=O)NC7=O)cn6)CC5)CC4)CC3)nc(NC3CC3)c21 (mixture of isomers) : DC50 is < 100 nM

Summary for this compound, CC(C)n1cnc2cc(-c3ccc4c(c3)N([C@H]3C[C@@H](N5CCC[C@H](F)C5)C3)C(=O)C43CCN(C(=O)C4(C)CCN(C(=O)C5CCN(c6ccc(C7CCC(=O)NC7=O)cn6)CC5)CC4)CC3)nc(NC3CC3)c21 (mixture of isomers) : DC50 is < 100 nM

Summary for this compound, CC(C)n1cnc2cc(-c3ccc4c(c3)N([C@H]3C[C@@H](N5CCCCC5)C3)C(=O)C43CCN(C(=O)[C@@H]4CCN(C(=O)[C@H]5CC[C@H](Nc6ccc(C(=O)NC7CCC(=O)NC7=O)nc6)CC5)C4)CC3)nc(Nc3ccccc3F)c21 (mixture of isomers) : DC50 is 500 to 1000 nM

Origin of values: patent US12091426B2
